Each record here notes measured shrunken log2 fold change.
# Test system: Escherichia coli TOP10
# assay_procedure: shrunken log2 fold change of peptide-encoding DNA abundance (4.5 h post-induction vs induction); higher = less antimicrobial activity (less host growth inhibition)
# cond: time post-induction: 4.5 h; library: site-saturation at positions 5, 18, 19, 20
assay_readout: shrunken log2 fold change

macromolecule_sequence=RRIRFRPPRLPRPRPRPALKPRP assay_readout="shrunken log2 fold change" reported=-0.0754
macromolecule_sequence=RRIRTRPPRLPRPRPRPVSRPRP assay_readout="shrunken log2 fold change" reported=0.464
macromolecule_sequence=RRIRDRPPRLPRPRPRPYTNPRP assay_readout="shrunken log2 fold change" reported=-0.647
macromolecule_sequence=RRIRLRPPRLPRPRPRPSGDPRP assay_readout="shrunken log2 fold change" reported=0.0305
macromolecule_sequence=RRIRSRPPRLPRPRPRPMKYPRP assay_readout="shrunken log2 fold change" reported=-0.278
macromolecule_sequence=RRIRVRPPRLPRPRPRPMREPRP assay_readout="shrunken log2 fold change" reported=0.689
macromolecule_sequence=RRIRIRPPRLPRPRPRPWIMPRP assay_readout="shrunken log2 fold change" reported=-0.735
macromolecule_sequence=RRIRQRPPRLPRPRPRPICKPRP assay_readout="shrunken log2 fold change" reported=-0.00411
macromolecule_sequence=RRIRIRPPRLPRPRPRPNHKPRP assay_readout="shrunken log2 fold change" reported=-0.857
macromolecule_sequence=RRIRWRPPRLPRPRPRPKISPRP assay_readout="shrunken log2 fold change" reported=0.177
macromolecule_sequence=RRIRTRPPRLPRPRPRPHPTPRP assay_readout="shrunken log2 fold change" reported=0.106
macromolecule_sequence=RRIRNRPPRLPRPRPRPTYYPRP assay_readout="shrunken log2 fold change" reported=-0.325
macromolecule_sequence=RRIRRRPPRLPRPRPRPCKFPRP assay_readout="shrunken log2 fold change" reported=0.123
macromolecule_sequence=RRIRWRPPRLPRPRPRPVVVPRP assay_readout="shrunken log2 fold change" reported=0.281
macromolecule_sequence=RRIRMRPPRLPRPRPRPYPIPRP assay_readout="shrunken log2 fold change" reported=0.0414

* * *

# Tested on: Escherichia coli TOP10
# assay_procedure: shrunken log2 fold change of peptide-encoding DNA abundance (4.5 h post-induction vs induction); higher = less antimicrobial activity (less host growth inhibition)
# cond: time post-induction: 4.5 h; library: site-saturation at positions 5, 18, 19, 20
Would you mind labelling by shrunken log2 fold change? At or over -0.008 is class 1, under is class 0.

macromolecule_sequence=RRIRIRPPRLPRPRPRPGGCPRP group="class 1"
macromolecule_sequence=RRIRQRPPRLPRPRPRPFPVPRP group="class 1"
macromolecule_sequence=RRIRRRPPRLPRPRPRPTWTPRP group="class 1"
macromolecule_sequence=RRIRSRPPRLPRPRPRPMPSPRP group="class 0"
macromolecule_sequence=RRIRNRPPRLPRPRPRPSPRPRP group="class 1"
macromolecule_sequence=RRIRARPPRLPRPRPRPAPLPRP group="class 1"
macromolecule_sequence=RRIRVRPPRLPRPRPRPPNHPRP group="class 0"
macromolecule_sequence=RRIRERPPRLPRPRPRPVYDPRP group="class 0"
macromolecule_sequence=RRIRDRPPRLPRPRPRPVSYPRP group="class 0"
macromolecule_sequence=RRIRIRPPRLPRPRPRPQTWPRP group="class 0"
macromolecule_sequence=RRIRDRPPRLPRPRPRPWSDPRP group="class 0"
macromolecule_sequence=RRIRRRPPRLPRPRPRPTKVPRP group="class 1"
macromolecule_sequence=RRIRCRPPRLPRPRPRPDDAPRP group="class 0"
macromolecule_sequence=RRIRVRPPRLPRPRPRPPSRPRP group="class 1"
macromolecule_sequence=RRIRARPPRLPRPRPRPRAKPRP group="class 1"
macromolecule_sequence=RRIRDRPPRLPRPRPRPRFDPRP group="class 0"
macromolecule_sequence=RRIRARPPRLPRPRPRPGVVPRP group="class 1"
macromolecule_sequence=RRIRQRPPRLPRPRPRPWVFPRP group="class 0"
macromolecule_sequence=RRIRTRPPRLPRPRPRPIEYPRP group="class 0"
macromolecule_sequence=RRIRRRPPRLPRPRPRPHELPRP group="class 1"
macromolecule_sequence=RRIRQRPPRLPRPRPRPYCMPRP group="class 0"
macromolecule_sequence=RRIRIRPPRLPRPRPRPGDPPRP group="class 0"
macromolecule_sequence=RRIRERPPRLPRPRPRPMKEPRP group="class 0"
macromolecule_sequence=RRIRARPPRLPRPRPRPGRFPRP group="class 1"
macromolecule_sequence=RRIRRRPPRLPRPRPRPVNRPRP group="class 0"
macromolecule_sequence=RRIRIRPPRLPRPRPRPKMNPRP group="class 0"
macromolecule_sequence=RRIRVRPPRLPRPRPRPHMLPRP group="class 0"
macromolecule_sequence=RRIRPRPPRLPRPRPRPYFMPRP group="class 0"
macromolecule_sequence=RRIRVRPPRLPRPRPRPCRGPRP group="class 1"
macromolecule_sequence=RRIRKRPPRLPRPRPRPERNPRP group="class 1"
macromolecule_sequence=RRIRDRPPRLPRPRPRPHSLPRP group="class 0"

* * *

# Test system: Escherichia coli TOP10
# assay_procedure: shrunken log2 fold change of peptide-encoding DNA abundance (4.5 h post-induction vs induction); higher = less antimicrobial activity (less host growth inhibition)
# cond: time post-induction: 4.5 h; library: site-saturation at positions 5, 18, 19, 20
Would you mind labelling by shrunken log2 fold change? At or over -0.07 is Criterion met, under is Criterion not met.

macromolecule_sequence=RRIRFRPPRLPRPRPRPTHPPRP group="Criterion not met"
macromolecule_sequence=RRIRNRPPRLPRPRPRPGMDPRP group="Criterion not met"
macromolecule_sequence=RRIRTRPPRLPRPRPRPRLTPRP group="Criterion met"
macromolecule_sequence=RRIRVRPPRLPRPRPRPTFWPRP group="Criterion met"
macromolecule_sequence=RRIRRRPPRLPRPRPRPDHKPRP group="Criterion met"
macromolecule_sequence=RRIRFRPPRLPRPRPRPDHDPRP group="Criterion not met"
macromolecule_sequence=RRIRPRPPRLPRPRPRPAHEPRP group="Criterion met"
macromolecule_sequence=RRIRLRPPRLPRPRPRPQQWPRP group="Criterion met"

* * *

# Test system: Escherichia coli TOP10;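 further: peptides expressed intracellularly from a pBAD plasmid library in pooled LB shake-flask culture, induced with 0.3% L-arabinose, DNA abundance read by NGS, three biological replicates, DESeq2 with apeglm shrinkage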
# assay_procedure: shrunken log2 fold change of peptide-encoding DNA abundance (4.5 h post-induction vs induction); higher = less antimicrobial activity (less host growth inhibition)
# cond: time post-induction: 4.5 h; library: site-saturation at positions 5, 18, 19, 20
Would you mind labelling by shrunken log2 fold change? At or over -0.06 is condition met, under is condition not met.

macromolecule_sequence=RRIRKRPPRLPRPRPRPMDKPRP group="condition met"
macromolecule_sequence=RRIRMRPPRLPRPRPRPSLIPRP group="condition not met"
macromolecule_sequence=RRIRTRPPRLPRPRPRPYFDPRP group="condition not met"
macromolecule_sequence=RRIRVRPPRLPRPRPRPDDQPRP group="condition met"
macromolecule_sequence=RRIRCRPPRLPRPRPRPDQMPRP group="condition met"
macromolecule_sequence=RRIRFRPPRLPRPRPRPVPAPRP group="condition met"
macromolecule_sequence=RRIRVRPPRLPRPRPRPSFPPRP group="condition not met"
macromolecule_sequence=RRIRWRPPRLPRPRPRPMQKPRP group="condition met"
macromolecule_sequence=RRIRERPPRLPRPRPRPQVDPRP group="condition not met"
macromolecule_sequence=RRIRCRPPRLPRPRPRPTQKPRP group="condition met"
macromolecule_sequence=RRIRIRPPRLPRPRPRPFMHPRP group="condition met"
macromolecule_sequence=RRIRCRPPRLPRPRPRPQKWPRP group="condition not met"
macromolecule_sequence=RRIRGRPPRLPRPRPRPYRVPRP group="condition met"
macromolecule_sequence=RRIRMRPPRLPRPRPRPNPQPRP group="condition met"
macromolecule_sequence=RRIRMRPPRLPRPRPRPPVQPRP group="condition met"
macromolecule_sequence=RRIRARPPRLPRPRPRPCRVPRP group="condition not met"
macromolecule_sequence=RRIRPRPPRLPRPRPRPHTPPRP group="condition met"
macromolecule_sequence=RRIRVRPPRLPRPRPRPINKPRP group="condition not met"
macromolecule_sequence=RRIRKRPPRLPRPRPRPALCPRP group="condition met"
macromolecule_sequence=RRIRWRPPRLPRPRPRPFRQPRP group="condition not met"
macromolecule_sequence=RRIRMRPPRLPRPRPRPNFHPRP group="condition met"
macromolecule_sequence=RRIRPRPPRLPRPRPRPNYTPRP group="condition not met"
macromolecule_sequence=RRIRYRPPRLPRPRPRPKLMPRP group="condition not met"
macromolecule_sequence=RRIRVRPPRLPRPRPRPKNQPRP group="condition not met"
macromolecule_sequence=RRIRLRPPRLPRPRPRPRMGPRP group="condition met"
macromolecule_sequence=RRIRRRPPRLPRPRPRPAYVPRP group="condition met"
macromolecule_sequence=RRIRMRPPRLPRPRPRPAAYPRP group="condition met"
macromolecule_sequence=RRIRFRPPRLPRPRPRPIKHPRP group="condition not met"
macromolecule_sequence=RRIRHRPPRLPRPRPRPMCSPRP group="condition met"
macromolecule_sequence=RRIRVRPPRLPRPRPRPYLGPRP group="condition not met"
macromolecule_sequence=RRIRSRPPRLPRPRPRPYIIPRP group="condition not met"
macromolecule_sequence=RRIRERPPRLPRPRPRPVVVPRP group="condition not met"
